Answer each item with its documented Maximum CD8+ T cell Binding (MFI).
- System Name: T1, human CD8 on human T cells (human, UniProt P01732 22-235)
- T1 construct: whole, on cells; the antibodies were raised against human CD8 alpha; also called CD8 on human CD8+ T cells; hCD8
- T1 sequence (P01732 22-235): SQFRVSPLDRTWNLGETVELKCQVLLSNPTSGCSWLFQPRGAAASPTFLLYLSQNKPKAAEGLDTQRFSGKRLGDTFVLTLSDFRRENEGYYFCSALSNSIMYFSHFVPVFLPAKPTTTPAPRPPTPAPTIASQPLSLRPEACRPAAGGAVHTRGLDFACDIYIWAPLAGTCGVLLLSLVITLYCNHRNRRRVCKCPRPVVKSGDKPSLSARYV
- Run Description: flow cytometry on human CD8+ T cells, titration
Give a bare numeral; the unit MFI is implied.

Query block: Requested read-out: Maximum CD8+ T cell Binding (MFI). Entry: humanized 02A01-VH6-VK3 (antibody, human IgG1, V domains shown, human IgG1 format; also called 02-VH6/VK3) VH: EVQLVQSGAEVKKPGATVKISCKASGYTFTDFTMHWVQQAPGKGLEWIGLVNPNNGGNIYAEKFQGRVTLTVDTSTSTAYMELSSLRSEDTAVYYCGRVPLYTSHGMDYWGQGTLVTVSS VL: EIVLTQSPATLSLSPGERATISCRASESVDSYDINSMHWYQQKPGQAPRLLIYRASHLQSGIPARFSGSGSRTDFTLTISSLEPEDFATYYCQQSNEDPLTFGQGTKLEIK
Result block: 2540

Query block: Okay, and humanized 02A01-VH2-VK4 (antibody, human IgG1, V domains shown, human IgG1 format; also called 02-VH2-VK4) VH: EVQLVQSGAEVKKPGATLKISCKASGYTFTDFTMHWVQQAPGKGLEWIGLVNPNNGGNIYNQNFKGRATLTVDTSTSTAYMELSSLRSEDTSVYYCGRVPLYTSHGMDYWGQGTLVTVSS VL: EIVLTQSPATLSVSPGERATISCRASESVDSYDINSMHWYQQKPGQAPRLLIYDASNRATGIPARFSGSGSRTDFTLTISSVEPEDFATYYCQQSNEDPLTFGQGTKLEIK ?
Result block: 2040

Query block: Okay, and Murine 02A01 (antibody, V domains shown, Recombinantly produced IgG; also called 02-parental; 02-Parent) VH: EVQLQQSGPELVKPGASLKISCKASGYTFTDFTMHWVKQSHGKSLEWIGLVNPNNGGNIYNQNFKGKATLTVDTSSSTAYMELRSLTSEDSSVYYCGRVPLYTSHGMDYWGQGTSVTVSS VL: DIVLTQSPAFLAVSLGQRATISCRASESVDSYDINSMHWYQQKPGQPPKLLIYRASHLQSGIPARFSGSGSRTDFTLTINFVEADDVATYYCQQSNEDPLTFGAGTKLELK ?
Result block: 2900

Query block: Okay, and humanized 02A01-VH1-VK4 (antibody, human IgG1, V domains shown, human IgG1 format; also called 02-VH1-VK4) VH: EVQLVQSGPEVVKPGATLKISCKASGYTFTDFTMHWVKQAPGKSLEWIGLVNPNNGGNIYNQNFKGRATLTVDTSTSTAYMELSSLRSEDTSVYYCGRVPLYTSHGMDYWGQGTLVTVSS VL: EIVLTQSPATLSVSPGERATISCRASESVDSYDINSMHWYQQKPGQAPRLLIYDASNRATGIPARFSGSGSRTDFTLTISSVEPEDFATYYCQQSNEDPLTFGQGTKLEIK ?
Result block: 2050

Query block: Okay, and humanized 02A01-VH4-VK3 (antibody, human IgG1, V domains shown, human IgG1 format; also called 02-VH4/VK3) VH: EVQLVQSGAEVKKPGATVKISCKASGYTFTDFTMHWVQQAPGKGLEWIGLVNPNNGGNIYAEKFQGRATLTVDTSTSTAYMELSSLRSEDTAVYYCGRVPLYTSHGMDYWGQGTLVTVSS VL: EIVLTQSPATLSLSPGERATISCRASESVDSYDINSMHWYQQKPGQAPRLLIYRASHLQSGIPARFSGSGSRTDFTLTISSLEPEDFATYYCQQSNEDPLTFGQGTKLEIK ?
Result block: 2620

All values here come from patent US20260055186A1.
